Test system: Plasmodium berghei
assayNotes: Screen against P. berghei liver stage (PbLuc), transformed with Luciferase, at 10uM
Format: functional, HepG2
conditionContext: tested at 10 uM
The whole screen tested about 69,000 compounds, of which about 8,600 (12%) showed an effect of 50% or more. The sample holds strong results, similar compounds and a random draw of the others, so the mix is not that of the screen.
hey, just use Criterion met if measured INHIBITION is less than 40%, otherwise Criterion not met

[[record]]
molecule = "O=S(=O)(c1cn[nH]c1)N1CCCC1c1cc[nH]n1 (centres undefined)"
system = "Plasmodium berghei"
group = "Criterion met"

[[record]]
molecule = "CC(C(=O)Nc1ccccn1)n1ccc(C(F)(F)F)n1 (centres undefined)"
system = "Plasmodium berghei"
group = "Criterion met"

[[record]]
molecule = "Cc1cccc2c1nc1n2[C@@H](CNC(=O)NC(C)C)COC1"
system = "Plasmodium berghei"
group = "Criterion met"

[[record]]
molecule = "Cn1ncc2c1CCCC2NCc1cccc(C(F)(F)F)c1 (centres undefined)"
system = "Plasmodium berghei"
group = "Criterion not met"

[[record]]
molecule = "O=C1CC[C@H](C(=O)Nc2cnn(-c3ccccc3Br)c2)N1"
system = "Plasmodium berghei"
group = "Criterion met"

[[record]]
molecule = "Cn1ncc2c1CCCC2NCc1cccc2c1OCCCO2 (centres undefined)"
system = "Plasmodium berghei"
group = "Criterion not met"

[[record]]
molecule = "CC(=O)c1c(C)nn(CC(=O)N2Cc3cnc(C(C)(C)C)nc3C2)c1C"
system = "Plasmodium berghei"
group = "Criterion met"

[[record]]
molecule = "COc1cc(N2CCCC(c3nccn3Cc3ccncc3)C2)ncn1 (centres undefined)"
system = "Plasmodium berghei"
group = "Criterion not met"

[[record]]
molecule = "Cc1nc(C)c(C(=O)N2CCCc3c(F)cccc32)o1"
system = "Plasmodium berghei"
group = "Criterion met"

[[record]]
molecule = "Cc1nc(C)c(C(=O)N2CCc3c(C)cccc32)o1"
system = "Plasmodium berghei"
group = "Criterion met"

[[record]]
molecule = "Cc1cccc2c1nc1n2[C@@H](CNC2CCCCC2)COC1"
system = "Plasmodium berghei"
group = "Criterion not met"

[[record]]
molecule = "Cc1cccc2c1nc1n2[C@@H](CNC(=O)C2CCOCC2)COC1"
system = "Plasmodium berghei"
group = "Criterion not met"

[[record]]
molecule = "CN(C)S(=O)(=O)N1CCCC(c2nccn2Cc2cccnc2)C1 (centres undefined)"
system = "Plasmodium berghei"
group = "Criterion met"

[[record]]
molecule = "Cc1cccc2c1nc1n2[C@@H](CNC(=O)Cc2ccccc2)COC1"
system = "Plasmodium berghei"
group = "Criterion met"

[[record]]
molecule = "CCN(CC)S(=O)(=O)N1CCCC(c2nccn2Cc2cccnc2)C1 (centres undefined)"
system = "Plasmodium berghei"
group = "Criterion met"

[[record]]
molecule = "CC(NC(=O)c1cc(-c2cccc(Cl)c2)no1)C(=O)N1CCCC1 (centres undefined)"
system = "Plasmodium berghei"
group = "Criterion not met"

[[record]]
molecule = "CCCSCC(=O)N1CCCC(c2nccn2Cc2ccncc2)C1 (centres undefined)"
system = "Plasmodium berghei"
group = "Criterion met"

[[record]]
molecule = "Cc1cc(C)n(CC(=O)N2Cc3cnc(C(C)(C)C)nc3C2)n1"
system = "Plasmodium berghei"
group = "Criterion not met"

[[record]]
molecule = "CC(=O)N1Cc2cnc(C(C)(C)C)nc2C1"
system = "Plasmodium berghei"
group = "Criterion met"

[[record]]
molecule = "Cc1nc(CN2CCc3cc(C(=O)O)c(N(C)C)nc3CC2)cs1"
system = "Plasmodium berghei"
group = "Criterion met"

[[record]]
molecule = "OCc1cn(Cc2cccc(C(F)(F)F)c2)nn1"
system = "Plasmodium berghei"
group = "Criterion met"

[[record]]
molecule = "CC(C)OC(=O)N1CCCC(c2nccn2Cc2ccncc2)C1 (centres undefined)"
system = "Plasmodium berghei"
group = "Criterion not met"

[[record]]
molecule = "Cc1cccc2c1nc1n2[C@@H](CNC(=O)c2ccccn2)COC1"
system = "Plasmodium berghei"
group = "Criterion met"

